Give measured Percent Effect for each item. Keep answers brief.
test system: Wolbachia pipientis; assay: Anti-Wolbachia Cell-Based Screen; format: functional; parameters: scale not given: in the data most compounds retested in dose-response had high values; details: 5 µM
Out of some 48,000 compounds screened, about 13,000 (27%) showed an effect of 50% or more. Some of the results follow.
Numbers only, in %.

Below: 10 compounds and their reported Percent Effect.
compound	Percent Effect, %
CC(=O)NCC(=O)N1CCn2cc(CN3CCN(C)CC3)nc2C1.O=C(O)C(F)(F)F.O=C(O)C(F)(F)F	-9.16
Cc1nn(C)c(C)c1NC(=O)CNc1ccc(F)c(C(F)(F)F)c1	-4.336
CN1CCC(c2cccc(NCc3nccn3C)n2)CC1	108.8
CC(C)COCC(C)NC(=O)NCc1cccc(-n2cncn2)c1 (stereo not drawn)	11.71
CC(C)OCCCNC(=O)C1CCC(=O)N(C2CCCC2)C1 (stereo not drawn)	25.57
CC1(C(=O)Nc2ccc(F)c(-n3cccc3)c2)CCOCC1	-9.431
Cn1cnc(S(=O)(=O)Nc2cc(C(N)=O)ccc2Cl)c1	-10.15
CCOc1cccc(NCc2cnc(N3CCN(C)CC3)nc2)n1	6.944
CC(C)c1nccn1-c1cccc(C2CCN(C)CC2)n1	4.105
CCN(CC)c1ccc(CNC(=O)C2(C)CCOCC2)cc1F	25.87

Below are some compounds; for each one, tell me its Percent Effect.
1. CCOc1ccnc(N2CCN(C(=O)C(C)(C)C#N)CC2)n1
2. COc1ccc(C(C#N)NC(=O)CC2=CCCCC2)c(OC)c1 (stereo not drawn)
3. COc1ccc2nnc(CCC(=O)Nc3nc4c(s3)CCCCC4)n2n1

[0.4658, -6.467, 106.8]

---

Give Percent Effect for every item shown.
system: Wolbachia pipientis; experiment: Anti-Wolbachia Cell-Based Screen; format: functional; parameters: scale not given: in the data most compounds retested in dose-response had high values; settings: 5 µM
Among all 48,000 compounds or so, about 13,000 (27%) showed an effect of 50% or more. The list shows a part of the results.
Give bare numbers, in %.

compound	Percent Effect / %
Cc1nc(C2CCCN(C(=O)CCCn3ccnc3C)C2)no1 (stereo not given)	-5.463
O=S(=O)(CCCn1cncn1)Cc1ccccc1Cl	-3.419

I'm hoping you can list Percent Effect for every compound here, please.
1. CCOc1cc(C(=O)O)cc(-c2ccccc2)c1OC
2. COc1cc(C(N)=O)c(N(C)S(C)(=O)=O)cc1OC
3. CCc1ncc(C(=O)N(C)Cc2cc(-c3ccncc3)no2)cn1
4. O=C(CCCOc1ccc(F)cc1F)N1CCCC1Cn1cccn1 (stereo not given)
5. Cc1nn(CCO)cc1CN1CCC(C(C)N2CCCC2)CC1 (stereo not given)

1: -26.33; 2: -14.68; 3: -12.94; 4: 4.503; 5: 9.031

For every listed record, write down its Percent Effect.
1. O=C(CCOc1ccccc1F)N1CCCCC1Cn1cccn1 (stereo not given)
2. OC1(CN2CCOC(Cn3cccn3)C2)CCCCC1 (stereo not given)

1. 114.4
2. 99.61

Dear colleague, could you please provide Percent Effect for the compounds listed below?
1. CN(C(=O)c1ccc(Cl)c(S(C)(=O)=O)c1)c1ccccc1
2. O=C(c1csnn1)N1CCc2[nH]nc(COc3cccc(Cl)c3)c2C1

1. -9.214
2. 7.373

Where do these numbers come from? They come from ChEMBL document CHEMBL3988442.
